Measured values drawn from patent US20240309103A1 for this set.

Documented 100 nM Ag Bound (RU) across a set of binders
target: T1, mfNPR1-mFc:hANP complex (monkey; human, UniProt P01160 124-151); experiment: SPR, mAb captured, 37C
T1 construct: also called monkey NPR1 complexed to ANP
measurement-name: 100 nM Ag Bound (RU)

binder: mAb25497 (antibody, human IgG4, V domains shown) VH: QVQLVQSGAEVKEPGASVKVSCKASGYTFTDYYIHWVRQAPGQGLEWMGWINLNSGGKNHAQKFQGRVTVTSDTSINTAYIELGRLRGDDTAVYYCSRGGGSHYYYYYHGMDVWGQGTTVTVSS VL: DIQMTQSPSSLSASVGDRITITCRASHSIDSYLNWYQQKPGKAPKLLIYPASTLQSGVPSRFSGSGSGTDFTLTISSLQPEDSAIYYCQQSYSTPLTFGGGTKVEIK
value-reported: 102
//
binder: mAb25508 (antibody, human IgG4, V domains shown) VH: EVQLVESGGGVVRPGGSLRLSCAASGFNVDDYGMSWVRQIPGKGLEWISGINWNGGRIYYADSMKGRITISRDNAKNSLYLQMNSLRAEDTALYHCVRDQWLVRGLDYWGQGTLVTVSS VL: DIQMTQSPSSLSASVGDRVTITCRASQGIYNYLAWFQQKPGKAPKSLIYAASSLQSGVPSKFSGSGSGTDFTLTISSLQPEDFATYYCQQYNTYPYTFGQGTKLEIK
value-reported: 262
//
binder: mAb22033 (antibody, human IgG4, V domains shown) VH: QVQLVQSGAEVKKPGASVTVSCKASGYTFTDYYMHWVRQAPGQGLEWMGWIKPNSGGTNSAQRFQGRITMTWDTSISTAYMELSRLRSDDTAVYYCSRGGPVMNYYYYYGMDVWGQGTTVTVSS VL: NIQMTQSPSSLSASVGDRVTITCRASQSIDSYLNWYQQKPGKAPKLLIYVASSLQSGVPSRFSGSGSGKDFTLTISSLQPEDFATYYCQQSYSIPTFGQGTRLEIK
value-reported: 169
